# TEST_DETAILS: DSSTox (CPDBAS) Carcinogenic Potency Database Summary SingleCellCall Results
# CONDITION_INFO: animal chronic carcinogenicity bioassays, CPDB summary call
Active and inactive are the calls of the source.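 How the source made its calls: active means a tumor-causing dose value with its tumor site reported for any sex and species group of a rodent or other animal cancer study; inconclusive means only studies judged inadequate by the national testing program; inactive means tested in at least one study, none positive.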 Numbered stars: 1 amine (or outer) side, 2 acyl side, 3 side chain; on linkers, the order of the positions; unused ones are H or OH. Bridge positions count the residues as written; N and C are the ends. Square brackets hold non-standard residues; d marks the D form. Peptide text beside a SMILES is read from it. I, II: the chains in the order shown. Actinocin(1to9) = Cc1c2oc3c(C)ccc(C(=O)[*:2])c3nc-2c(C(=O)[*:1])c(N)c1=O; d(aIle) = CC[C@H](C)[C@@H](N)C(=O)O; NMeV = CN[C@H](C(=O)O)C(C)C; Sar = CNCC(=O)O
Can you answer with just one of these options? Y for active, N for inactive

Task item: Check the results log: what was the call for O=S(=O)(O)c1ccc(N=Nc2cc(S(=O)(=O)O)c3ccccc3c2O)c2ccccc12 ?
Reply: N

Task item: Then CC(=O)OC[C@]12C[C@H](OC(=O)CC(C)C)C(C)=C[C@H]1O[C@@H]1[C@H](O)[C@@H](OC(C)=O)[C@@]2(C)C12CO2 (stereo partly specified) ?
Reply: Y

Task item: Okay, and O=NN1CCCCCCCCCCCC1 ?
Reply: Y

Task item: Same again, this time with Nc1ccc(/C=C/c2ccc(N)cc2S(=O)(=O)O)c(S(=O)(=O)O)c1
Reply: N

Task item: Item: O=C(O)CC[N+](=O)[O-]
Reply: N

Task item: What about Cc1ccc(N)cc1Cl ?
Reply: N

Task item: Next entry: C=CCOC(=O)CC(C)C
Reply: Y

Task item: Can you check CN1C(=O)C[C@@H](C(=O)N[C@@H](Cc2cnc[nH]2)C(=O)N2CCC[C@H]2C(N)=O)NC1=O next?
Reply: N

Task item: And then Cc1ccc(Cl)cc1N , what is it?
Reply: Y

Task item: Quick one: Cc1ccc(S(=O)(=O)Oc2ccc(N=Nc3ccc(-c4ccc(N=Nc5c(O)ccc6cc(S(=O)(=O)O)cc(S(=O)(=O)O)c56)c(C)c4)cc3C)cc2)cc1
Reply: Y

Task item: Now consider COc1ccc(N)c(OC)c1 .
Reply: N

Task item: Entry Cc1nnc2n1-c1sc(CCc3ccc(CC(C)C)cc3)cc1C(c1ccccc1Cl)=NC2C (stereo unspecified) please
Reply: N

Task item: One more compound: COc1ccc(OC)c(/C=C/c2ccc(N)cc2)c1
Reply: Y

Task item: Then O=NN1CCSCC1 ?
Reply: Y

Task item: Subsequent entry: CC[C@H](C)[C@H]1NC(=O)[C@@H](NC(=O)c2c3nc4c(C(=O)N[C@@H]5C(=O)N[C@H](C(C)C)C(=O)N6CCC[C@H]6C(=O)N(C)CC(=O)N(C)[C@@H](C(C)C)C(=O)O[C@@H]5C)ccc(C)c4oc-3c(C)c(=O)c2N)[C@@H](C)OC(=O)[C@H](C(C)C)N(C)C(=O)CN(C)C(=O)[C@@H]2CCCN2C1=O (I: T[d(aIle)]P[Sar][NMeV] / II: T[dV]P[Sar][NMeV]; ester I:1-I:C, II:1-II:C; linker I:N-II:N via Actinocin(1to9))
Reply: N

Task item: Same lookup for O=CNNc1nc(-c2ccc([N+](=O)[O-])o2)cs1 , please.
Reply: Y

Task item: Now give it for O=S(=O)(O)CCS too.
Reply: N

Task item: Another compound to look at: CCSC[C@H](N)C(=O)O
Reply: N

Task item: For NC(=O)N(CCF)N=O then?
Reply: Y

Task item: Would you kindly repeat that for CN(N=O)C(=O)Nc1nc2ccccc2s1 ?
Reply: Y

Task item: # iterate: Nc1nc(-c2ccc([N+](=O)[O-])o2)cs1
Reply: Y

Task item: Do the same for Nc1cnn([C@@H]2O[C@H](CO)[C@@H](O)[C@H]2O)c(=O)n1 please
Reply: N

Task item: Okay, and CCN(Cc1cccc(S(=O)(=O)O)c1)c1ccc(C(=C2C=CC(=[N+](CC)Cc3cccc(S(=O)(=O)O)c3)C=C2)c2ccc(O)cc2S(=O)(=O)[O-])cc1 ?
Reply: N

Task item: How about this compound: Nc1ccc(N)c2c1C(=O)c1c(N)ccc(N)c1C2=O
Reply: Y

Task item: Note, next up: O=[N+]([O-])c1ccc2ccc3cccc4ccc1c2c34
Reply: Y

Task item: Please answer likewise for CCCOC(=O)C1c2cc3c(cc2CC(C)C1C(=O)OCCC)OCO3 (stereo unspecified)
Reply: N

Task item: // next record C=C/C=N/O
Reply: N

Task item: Also, CN(C)C(=S)SC(=S)N(C)C please.
Reply: N

Task item: // next record CCNN
Reply: Y

Task item: What would you report for CCC1(c2ccccc2)C(=O)NCNC1=O ?
Reply: Y

Task item: Same thing, different compound: OC[C@@H](O)[C@H]1O[C@@H]2O[C@H](C(Cl)(Cl)Cl)O[C@@H]2[C@H]1O
Reply: N

Task item: Now give it for OC(Cn1cncn1)(Cn1cncn1)c1ccc(F)cc1F too.
Reply: Y

Task item: Another compound to look at: C/C=N/O
Reply: N

Task item: Subsequent entry: O=C(O)CCl
Reply: N

Task item: Check [CH3][Hg][Cl] too.
Reply: Y

Task item: Try CCCCCCCCCCCCN(C)N=O next.
Reply: Y

Task item: Okay, and O=C1OC(=O)c2ccccc21 ?
Reply: N

Task item: Similarly, CCCCCCCCCCCCN=C(N)N ?
Reply: N

Task item: Quick one: C[C@H]1CCCC(=O)CCC/C=C/c2cc(O)cc(O)c2C(=O)O1
Reply: Y

Task item: Now the same for C=Cc1ccc(C)cc1
Reply: N

Task item: Same again, this time with O
Reply: N

Task item: Another: C[C@](N)(Cc1ccc(O)c(O)c1)C(=O)O
Reply: N

Task item: Can you check [N]=O next?
Reply: N

Task item: Would you mind doing CC(=O)C(N=Nc1ccc(Cl)cc1Cl)C(=O)Nc1ccc(-c2ccc(NC(=O)C(N=Nc3ccc(Cl)cc3Cl)C(C)=O)c(C)c2)cc1C (stereo unspecified) as well?
Reply: N

Task item: Continue with O=[N+]([O-])c1ccc(-c2nc(NCCO)c3ccccc3n2)s1
Reply: Y

Task item: Do the same for CC(=O)[O][Sn]([c]1ccccc1)([c]1ccccc1)[c]1ccccc1 please
Reply: N

Task item: And what about the compound CC(COc1ccccc1)N(CCCl)Cc1ccccc1 (stereo unspecified) ?
Reply: Y

Task item: Further, for O=NN1CCOC1=O ?
Reply: Y

Task item: And the next one, Cc1cc2ncccc2c2nc(N)n(C)c12 ?
Reply: Y

Task item: Try this compound too: Cl[C@H]1OCCO[C@@H]1Cl
Reply: N
